Measured MIC accompanies every entry in the list below.
test system: MRSA isolates; assay: MIC/MBC, CLSI broth microdilution, MRSA isolates; assay type: cell-based, Staphylococcus aureus; conditions: Staphylococcus aureus, MRSA, pH 7.4, MRSA 0606, pH 7.4
Provide a numeric answer, followed by its unit.

// known answers, use as guide
[K+].[K+].[O-]c1c(Cl)cc(Cl)cc1-c1cc(Cl)cc(Cl)c1[O-] [C59K]: 2 µg/mL
[Na+].[Na+].[O-]c1c(Cl)cc(Cl)cc1-c1cc(Cl)cc(Cl)c1[O-] [C59Na]: 2 µg/mL
[Li+].[Li+].[O-]c1c(Cl)cc(Cl)cc1-c1cc(Cl)cc(Cl)c1[O-] [C59Li]: 1 µg/mL

From here, focus on the item given below.
Need MIC of Oc1c(Cl)cc(Cl)cc1-c1cc(Cl)cc(Cl)c1O [C59] , thanks.
2 µg/mL

###

Measured MBC accompanies every entry in the list below.
system: MRSA isolates; assay: MIC/MBC, CLSI broth microdilution, MRSA isolates; assay type: cell-based, Staphylococcus aureus; conditions: Staphylococcus aureus, MRSA, pH 6.5, MRSA 0634, pH 6.5
Provide a numeric answer, followed by its unit.

// known answers, use as guide
[Na+].[Na+].[O-]c1c(Cl)cc(Cl)cc1-c1cc(Cl)cc(Cl)c1[O-] [C59Na]: 1 µg/mL
Oc1c(Br)cc(Br)cc1-c1cc(Br)cc(Br)c1O: 2 µg/mL
[Li+].[Li+].[O-]c1c(Cl)cc(Cl)cc1-c1cc(Cl)cc(Cl)c1[O-] [C59Li]: 1 µg/mL
CN[C@H](CC(C)C)C(=O)N[C@H]1C(=O)N[C@@H](CC(N)=O)C(=O)N[C@H]2C(=O)N[C@H]3C(=O)N[C@H](C(=O)N[C@H](C(=O)O)c4cc(O)cc(O)c4-c4cc3ccc4O)[C@H](O)c3ccc(c(Cl)c3)Oc3cc2cc(c3O[C@@H]2O[C@H](CO)[C@@H](O)[C@H](O)[C@H]2O[C@H]2C[C@](C)(N)[C@H](O)[C@H](C)O2)Oc2ccc(cc2Cl)[C@H]1O [Vancomycin, vancomycin, reference compound]: 4 µg/mL

From here, focus on the item given below.
Need MBC of "Oc1c(Cl)cc(Cl)cc1-c1cc(Cl)cc(Cl)c1O" , thanks.
4 µg/mL

###

test system: MRSA isolates; experiment: MIC/MBC, CLSI broth microdilution, MRSA isolates; assay type: cell-based, Staphylococcus aureus; conditions: Staphylococcus aureus, MRSA, pH 5.5, MRSA 0634, pH 5.5
parameter.measured: MBC

// known answers, use as guide
[Li+].[Li+].[O-]c1c(Cl)cc(Cl)cc1-c1cc(Cl)cc(Cl)c1[O-] [C59Li]: 0.25 µg/mL
Oc1c(Br)cc(Br)cc1-c1cc(Br)cc(Br)c1O: 0.5 µg/mL
CN[C@H](CC(C)C)C(=O)N[C@H]1C(=O)N[C@@H](CC(N)=O)C(=O)N[C@H]2C(=O)N[C@H]3C(=O)N[C@H](C(=O)N[C@H](C(=O)O)c4cc(O)cc(O)c4-c4cc3ccc4O)[C@H](O)c3ccc(c(Cl)c3)Oc3cc2cc(c3O[C@@H]2O[C@H](CO)[C@@H](O)[C@H](O)[C@H]2O[C@H]2C[C@](C)(N)[C@H](O)[C@H](C)O2)Oc2ccc(cc2Cl)[C@H]1O [Vancomycin, vancomycin, reference compound]: 8 µg/mL

Need MBC of "Oc1c(Cl)cc(Cl)cc1-c1cc(Cl)cc(Cl)c1O" , thanks.
0.5 µg/mL

Need MBC of [Na+].[Na+].[O-]c1c(Cl)cc(Cl)cc1-c1cc(Cl)cc(Cl)c1[O-] [C59Na] , thanks.
0.25 µg/mL

###

Measured pH of solution accompanies every entry in the list below.
experiment: pH and Ka of 10-g/L aqueous solutions (pH meter); type: physicochemical; details: 10-g/L solution in distilled, deionized water, room temperature
The answer should be written as a number, with no unit following it.

// known answers, use as guide
Oc1c(Cl)cc(Cl)cc1-c1cc(Cl)cc(Cl)c1O: 9.86
CC(=O)Oc1c(Cl)cc(Cl)cc1-c1cc(Cl)cc(Cl)c1OC(C)=O [C59Ac]: 6.61

Need pH of solution of "Oc1c(Br)cc(Br)cc1-c1cc(Br)cc(Br)c1O" , thanks.
6.80

Need pH of solution of [Na+].[Na+].[O-]c1c(Cl)cc(Cl)cc1-c1cc(Cl)cc(Cl)c1[O-] [C59Na] , thanks.
8.69
